System: VPS34
Construct: gene PIK3C3
Conditions: concentration: 1 μM, replicates: in singlicate; n = 1;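 also: KINOMEscan kinase panel screen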
Below: a set of entries, each annotated with reported %Inh.
propertyName: %Inh (%)

> print(dat)
                                    compound  propertyname  experimentalvalue
 1  Cl.NC(=O)c1cccc(Nc2nccc(Nc3ccc(Oc4c(Cl)cccc4Cl)c(Cl)c3)n2)c1          %Inh                  0
 2  COc1cc(Nc2ncc3c(C)nc(-c4cc5ccccc5[nH]4)n3n2)cc(OC)c1OC          %Inh                  0
 3  C[C@@H]1CC[C@@H](C(=O)Nc2ccccc2)CN1c1cc(-c2ccc3c(N)n[nH]c3c2)nc(N)n1          %Inh                  0
 4  CCS(=O)(=O)c1ccc(OC)c(Nc2nccc(-c3c(-c4cccc(NC(=O)c5c(F)cccc5F)c4)nn4ncccc34)n2)c1          %Inh                  0
 5  O=C(Nc1ccccc1F)NC1CCN(c2ccnc(Nc3ccc(F)cc3)n2)CC1          %Inh                  0
 6  COCCOCCOc1cc2ncc3c4ccc(C#N)cc4[nH]c3c2cc1OC          %Inh                  0
 7  COc1cc(Nc2nccc(-c3c(-c4cccc(NC(=O)c5c(F)cccc5F)c4)nn4ccccc34)n2)cc(OC)c1OC          %Inh                 12
 8            Oc1cc(Nc2ccnc3cc(I)ccc23)ccc1F          %Inh                  0
 9  Cc1ccc(C)c(NC(=O)NC2CCN(c3ccnc(Nc4ccc(F)cc4)n3)C2)c1 (centres unmarked)          %Inh                  0
10  C[C@@H](Oc1cc(-n2cnc3cc(-c4ccnc(NCCS(C)(=O)=O)c4)ccc32)sc1C(N)=O)c1ccccc1Cl          %Inh                 60
11  COc1ccc(CNC(=O)NC2CCN(c3ccnc(Nc4ccc(F)cc4)n3)CC2)cc1          %Inh                 17
12  O=C(Nc1cccc(-c2nn3ncccc3c2-c2ccnc(Nc3ccccc3)n2)c1)c1c(F)cccc1F          %Inh                  0
13  COC(=O)Nc1nc2ccc(Oc3ccc(NC(=O)Nc4cc(C(F)(F)F)ccc4F)cc3)cc2n1C.Cl          %Inh                  0
14  CN(C)S(=O)(=O)c1cc(-c2ccc3nccc(-c4cccc(S(N)(=O)=O)c4)c3c2)cnc1N          %Inh               92.7
15  Cc1ccc(C(=O)N2CC[C@@H](O)C2)cc1-n1c(C)cc(OCc2ccc(F)cc2F)c(Br)c1=O          %Inh                  0
16  O=C(Nc1cccc(-c2nn3ccccc3c2-c2ccnc(Nc3cccc(F)c3)n2)c1)c1c(F)ccc(F)c1Cl          %Inh                 22
17  O=C(Nc1n[nH]c2nc(-c3ccc(O)cc3)ccc12)C1CC1          %Inh                  0
18  CN(c1ccc(NC(=O)Nc2cc(C(F)(F)F)ccc2F)cc1)c1ccnc(Nc2ccc(S(N)(=O)=O)cc2)n1          %Inh                  4
19  Cl.c1ccc(-c2ccc3c(Nc4ccc5[nH]ncc5c4)ccnc3c2)nc1          %Inh                  0
20  Cl.Cl.NCC(C(=O)Nc1cc(Br)c(-c2ccnc3[nH]ccc23)s1)c1ccccc1 (centres unmarked)          %Inh                  0
21  CC(C)c1nc(-c2cccc(NS(=O)(=O)c3c(F)cccc3F)c2F)c(-c2ccnc(Nc3ccc(N4CCOCC4)nc3)n2)s1          %Inh                  0
22  Nc1ncc(-c2ccc3nccc(-c4ccncc4)c3c2)cc1S(=O)(=O)N1CCOCC1          %Inh               93.3
23  Cc1cccc(NC(=O)Nc2ccc(Oc3ncnc4ccn(C)c34)cc2)c1          %Inh                  0
24  O=C(Nc1cccc(-c2nn3ccccc3c2-c2ccnc(Nc3cccc(C(F)(F)F)c3)n2)c1)c1c(F)cccc1F          %Inh                  0
25  CCCCc1nn2ncccc2c1-c1ccnc(Nc2ccc(N3CCN(C)CC3)cc2)n1          %Inh                 15
26              Nc1n[nH]c2cnc(-c3ccccc3)cc12          %Inh                  0
27  Cc1ccc(F)c(C(=O)Nc2cccc(-c3nn4ccccc4c3-c3ccnc(Nc4cccc(F)c4)n3)c2)c1F          %Inh                  7
28  COc1cccc(C(=O)Nc2cccc(Oc3ccc4nc(NC(=O)C5CC5)cn4n3)c2)c1          %Inh                 22
29  O=c1[nH]cc(-c2ccc(N3CCOCC3)cc2)c2sc(-c3cn[nH]c3)cc12          %Inh                  0
30  Cc1ccc(S(=O)(=O)Nc2ccc(Nc3nccc(Nc4cccc5[nH]ncc45)n3)cc2)cc1          %Inh                 60
31        Nc1ncnc2c1nc(-c1ccccc1)n2-c1ccccc1          %Inh                 44
32  c1ccc(Oc2ccc(Nc3ccnc4cc(-c5ccc(CNCCN6CCOCC6)o5)ccc34)cc2)nc1          %Inh                  2

###

molecules and their reported %Inh
System: ERK1
Construct: gene MAPK3
Settings: concentration: 1 μM, replicates: in singlicate; n = 1
propertyName: %Inh (%)

> print(dat)
                                    molecule  experimentalvalue
 1      c1ccc(-c2n[nH]cc2Nc2ccnc3ccccc23)nc1                  0
 2  Cc1cccc(NC(=O)Nc2ccc(Oc3ncnc4ccn(C)c34)cc2)c1                  0
 3  CCn1c(-c2nonc2N)nc2c(C#CC(C)(C)O)nc(OC[C@H](N)c3ccccc3)cc21                  0
 4  COc1ccc(CNC(=O)NC2CCN(c3ccnc(Nc4ccc(F)cc4)n3)CC2)cc1                  0
 5  CCS(=O)(=O)c1ccc(OC)c(Nc2nccc(-c3c(-c4cccc(NC(=O)c5c(F)cccc5F)c4)nn4ncccc34)n2)c1                  0
 6  CN1CCN(Cc2cccc(-c3ccc4c(Nc5ccc(Oc6ccccc6)cc5)ccnc4c3)c2)CC1                  4
 7  COC(=O)Nc1nc2ccc(Oc3ccc(NC(=O)Nc4cc(C(F)(F)F)ccc4F)cc3)cc2n1C.Cl                  0
 8  Cc1ccc(C(=O)Nc2ccc(Nc3ccnc4cc(-c5nccs5)ccc34)cc2O)cc1.Cl                  0
 9  Cc1ccc(S(=O)(=O)Nc2ccc(Nc3nccc(Nc4cccc5[nH]ncc45)n3)cc2)cc1                  0
10  COc1cc(Nc2nccc(N3CCC(NC(=O)c4cc5ccccc5s4)C3)n2)cc(OC)c1OC (stereo not shown)                 12

###

%Inh values, listed per item
Test system: CIT
Conditions: concentration: 1 μM, replicates: in singlicate; n = 1
propertyName: %Inh (%)

> print(dat)
                                   compound  propertyname  experimentalvalue
1  COc1ccc(Nc2nccc(NCCNC(=O)c3cc4ccccc4s3)n2)cc1          %Inh                  5
2  Cl.Cl.NCC(NCc1ccc(-c2ccnc3[nH]ccc23)s1)c1ccccc1 (stereo not drawn)          %Inh                 93
3  Cc1ccc(C)c(NC(=O)NC2CCN(c3ccnc(Nc4ccc(F)cc4)n3)C2)c1 (stereo not drawn)          %Inh                  0

###

Test system: TRKB
Conditions: concentration: 1 μM, replicates: in singlicate; n = 1
propertyName: %Inh (%)

> print(dat)
                                    compound  studysystem  propertyname  unittag  experimentalvalue
 1  Cn1cc(-c2[nH]c3cc(NC(=O)[C@H](N)C4CCCCC4)cc4c3c2C=NNC4=O)cn1         TRKB          %Inh        %                 64
 2  Cl.c1ccc(-c2ccc3c(Nc4ccc5[nH]ccc5c4)ccnc3c2)nc1 [GW440138]         TRKB          %Inh        %                  9
 3  Nc1n[nH]c2cnc(-c3ccccc3)cc12 [SB-642124]         TRKB          %Inh        %                 28
 4  COc1cc(Nc2nccc(N3CCC(NC(=O)Nc4cccc(C(C)=O)c4)C3)n2)cc(OC)c1OC (centres unmarked) [GSK1379753]         TRKB          %Inh        %                 63
 5  CN(C)S(=O)(=O)c1cc(-c2ccc3nccc(-c4cccc(S(N)(=O)=O)c4)c3c2)cnc1N [GSK1669921]         TRKB          %Inh        %                  0
 6  COc1cc(Nc2nccc(N3CCC(NC(=O)c4cc5ccccc5s4)C3)n2)cc(OC)c1OC (centres unmarked) [GSK1379760]         TRKB          %Inh        %                  0
 7  CNC(=O)c1ccccc1Nc1nc(Nc2ccc(N3CCOCC3)cc2)ncc1Cl.Cl [GSK1576028]         TRKB          %Inh        %               96.6
 8  O=C(Nc1ccccc1F)NC1CCN(c2ccnc(Nc3ccc(F)cc3)n2)CC1 [GSK1379800]         TRKB          %Inh        %                  0
 9  Clc1ccc(-c2nn3ncccc3c2-c2ccnc(Nc3ccc4c(c3)OCCO4)n2)cc1 [GW829116]         TRKB          %Inh        %                  0
10  COc1ccc(Nc2nccc(NCCNC(=O)c3cc4ccccc4s3)n2)cc1 [GSK1379896]         TRKB          %Inh        %                  0
11  Cc1ccc(C(=O)Nc2ccc(Nc3ccnc4cc(-c5nccs5)ccc34)cc2O)cc1.Cl [GW494702]         TRKB          %Inh        %                 20
12  NCCCC(NC(=O)c1cc(Br)c(-c2ccnc3[nH]ccc23)s1)c1ccccc1.O=C(O)C(F)(F)F.O=C(O)C(F)(F)F (centres unmarked) [GSK1287544]         TRKB          %Inh        %                 11
13        c1ccc(-c2cnc3nccnn23)cc1 [AH20685]         TRKB          %Inh        %                 17
14  Cl.NC(=O)c1cccc(Nc2nccc(Nc3ccc(Oc4c(Cl)cccc4Cl)c(Cl)c3)n2)c1 [GW659009]         TRKB          %Inh        %                  7
15  COc1cccc(NC(=O)NC2CCN(c3ccnc(Nc4cc(OC)c(OC)c(OC)c4)n3)C2)c1 (centres unmarked) [GSK1379763]         TRKB          %Inh        %                 63
16  CCCCc1nn2ncccc2c1-c1ccnc(Nc2ccc(N3CCN(C)CC3)cc2)n1 [GW684941]         TRKB          %Inh        %                 78
17  CCn1c(-c2nonc2N)nc2c(C#CC(C)(C)O)nc(OC[C@H](N)c3ccccc3)cc21 [GSK943949]         TRKB          %Inh        %                  0
